Target: Bile acid receptor (Homo sapiens) (UniProt Q96RI1)
Sequence (Q96RI1 whole entry, looked up): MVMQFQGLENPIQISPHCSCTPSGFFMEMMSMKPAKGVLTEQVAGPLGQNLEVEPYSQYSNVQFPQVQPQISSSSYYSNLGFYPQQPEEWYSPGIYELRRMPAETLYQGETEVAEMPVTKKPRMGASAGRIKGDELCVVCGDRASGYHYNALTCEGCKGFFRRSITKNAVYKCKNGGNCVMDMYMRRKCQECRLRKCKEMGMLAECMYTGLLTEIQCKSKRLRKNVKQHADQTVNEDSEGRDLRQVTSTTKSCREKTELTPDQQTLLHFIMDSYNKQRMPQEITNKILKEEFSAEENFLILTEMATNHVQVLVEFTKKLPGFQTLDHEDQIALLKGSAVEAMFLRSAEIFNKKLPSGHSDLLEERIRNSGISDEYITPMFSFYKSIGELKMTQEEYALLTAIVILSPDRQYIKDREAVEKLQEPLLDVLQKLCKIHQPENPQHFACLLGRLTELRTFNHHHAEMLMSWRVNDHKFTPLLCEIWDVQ
Assay: qHTS assay for small molecule antagonists of farnesoid X receptor signaling (AID 588526)
Conditions: HEK293T FXR-UAS-bla, beta-lactamase ratio, antagonist mode; series mostly up to 76.7 µM
Results filed as inconclusive are left out. Active and inactive are the calls of the source. The call rests on the fitted dose curve.
ATTRIBUTE MEASURED: outcome

Look over these answered cases.
> print(dat)
                            compound.smiles  attribute.measured  endpoint.result
1  CCCCCCCC(=O)OCC(COC(=O)CCCCCCC)OC(=O)CCCCCCC             outcome         inactive
2                   Cc1cc(=O)[nH]c(=S)[nH]1             outcome         inactive
3           Nc1ccc(S(=O)(=O)c2ccc(N)cc2)cc1             outcome         inactive
4       Cc1cc(C)nc(NS(=O)(=O)c2ccc(N)cc2)n1             outcome         inactive

Summary for this compound, `CC(=O)Nc1ccccc1` : outcome is inactive

Data provenance is PubChem BioAssay (NCATS).
